Cited source for all entries: paper PMC3894197

Readings of t n 24h for the listed molecules
# System Under Test: SHV-1 (Klebsiella pneumoniae, UniProt P0AD64)
# Construct: made in house
# Sequence (P0AD64 22-286): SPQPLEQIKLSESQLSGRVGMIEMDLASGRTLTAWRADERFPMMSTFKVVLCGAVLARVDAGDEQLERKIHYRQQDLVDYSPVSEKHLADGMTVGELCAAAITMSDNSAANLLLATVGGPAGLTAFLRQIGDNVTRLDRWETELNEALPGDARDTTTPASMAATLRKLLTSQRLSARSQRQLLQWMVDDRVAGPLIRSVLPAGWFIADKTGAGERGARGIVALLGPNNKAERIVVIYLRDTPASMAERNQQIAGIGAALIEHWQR
# Test Protocol: Partition ratio (turnover number, tn)
# Type: biochemical
# Run Conditions: SHV-1, 24 hour incubation, loss of >90% nitrocefin hydrolysis
Reply: number alone, nothing else.

Molecule | t n 24h
C[C@]1(Cn2ccnn2)[C@H](C(=O)O)N2C(=O)C[C@H]2S1(=O)=O [tazobactam, reference compound] | 5

Inquiry: Which measured t n 24h value corresponds to `C[C@]1(COC(=O)CCCC(=O)O)[C@H](C(=O)O)N2C(=O)C[C@H]2S1(=O)=O` ?
Reply text: 120

---

# System Under Test: SHV K234R (Klebsiella pneumoniae, UniProt P0AD64, K230R)
# Construct: GST (N, cleaved yes); made in house; host or cells: Origami2 (DE3) E. coli
# Test Protocol: biochemical
# Assay type: biochemical
Endpoint: Ki (µM)
Your answer is read as µM, so omit the unit and give the number.

Inquiry: Which measured Ki value corresponds to `C[C@]1(COC(=O)CCCC(=O)O)[C@H](C(=O)O)N2C(=O)C[C@H]2S1(=O)=O` ?
Reply text: 2.1

---

# System Under Test: SHV-1 (Klebsiella pneumoniae)
# Construct: made in house
# Test Protocol: Inactivation kinetics (kinact, KI, kinact/KI) with nitrocefin
# Assay type: biochemical
# Run Conditions: SHV-1
Endpoint: k inact/K I (M⁻¹ s⁻¹)
Your answer is read as M⁻¹ s⁻¹, so omit the unit and give the number.

Would you please look over these solved cases?
Compound | k inact/K I / M⁻¹ s⁻¹
CC1(COC(=O)CCC(=O)O)C(C(=O)O)N2C(=O)CC2S1(=O)=O (stereo not shown) [PSR-4-155] | 50000
CC1(COC(=O)CCCCC(=O)O)C(C(=O)O)N2C(=O)CC2S1(=O)=O (stereo not shown) [PSR-4-157] | 100000
C[C@]1(COC(=O)CCCC(=O)O)[C@H](C(=O)O)N2C(=O)C[C@H]2S1(=O)=O [SA2-13] | 370000

Now take the following compound into account.
Inquiry: Which measured k inact/K I value corresponds to CC1(C(=O)OCC(N)=O)C(C(=O)O)N2C(=O)CC2S1(=O)=O (stereo not shown) [PSR-3-226] ?
Reply text: 60000

---

Readings of Ki for the listed compounds
# System Under Test: wt SHV-1 (Klebsiella pneumoniae, UniProt P0AD64)
# Sequence (P0AD64 22-286): as above
Your answer is read as nM, so omit the unit and give the number.

Inquiry: Form field: Ki recorded for `C[C@]1(COC(=O)CCCC(=O)O)[C@H](C(=O)O)N2C(=O)C[C@H]2S1(=O)=O` with wt SHV-1 (Klebsiella pneumoniae, UniProt P0AD64) (enter value)
Reply text: 1700

Inquiry: Form field: Ki recorded for CC1(COC(=O)CCCCC(=O)O)C(C(=O)O)N2C(=O)CC2S1(=O)=O (stereo not shown) with wt SHV-1 (Klebsiella pneumoniae, UniProt P0AD64) (enter value)
Reply text: 1700

Inquiry: Form field: Ki recorded for CC1(COC(=O)CCC(=O)O)C(C(=O)O)N2C(=O)CC2S1(=O)=O (stereo not shown) with wt SHV-1 (Klebsiella pneumoniae, UniProt P0AD64) (enter value)
Reply text: 2700

Inquiry: Form field: Ki recorded for CC1(C(=O)OCC(N)=O)C(C(=O)O)N2C(=O)CC2S1(=O)=O (stereo not shown) with wt SHV-1 (Klebsiella pneumoniae, UniProt P0AD64) (enter value)
Reply text: 2600

---

Below are molecules with their pIC50 as measured on SHV-1 (Klebsiella pneumoniae, UniProt P0AD64).
Just so you know, pIC50 here is -log10 of the concentration in molar units; reply with that number alone.

Would you please look over these solved cases?
Molecule | System Under Test | Endpoint | Reported Result
C[C@]1(COC(=O)CCCC(=O)O)[C@H](C(=O)O)N2C(=O)C[C@H]2S1(=O)=O | SHV-1 (Klebsiella pneumoniae, UniProt P0AD64) | pIC50 | 7.09
CC1(COC(=O)CCC(=O)O)C(C(=O)O)N2C(=O)CC2S1(=O)=O (stereo not shown) | SHV-1 (Klebsiella pneumoniae, UniProt P0AD64) | pIC50 | 6.36
CC1(C(=O)OCC(N)=O)C(C(=O)O)N2C(=O)CC2S1(=O)=O (stereo not shown) | SHV-1 (Klebsiella pneumoniae, UniProt P0AD64) | pIC50 | 6.43

Now take the following molecule into account.
Inquiry: Form field: pIC50 recorded for CC1(COC(=O)CCCCC(=O)O)C(C(=O)O)N2C(=O)CC2S1(=O)=O (stereo not shown) with SHV-1 (Klebsiella pneumoniae, UniProt P0AD64) (enter value)
Reply text: 6.80

---

# System Under Test: SHV-1 (Klebsiella pneumoniae)
Readings of pKi for the listed compounds
Just so you know, pKi here is -log10 of the concentration in molar units; reply with that number alone.

Compound | Reported Result
CC1(C(=O)OCC(N)=O)C(C(=O)O)N2C(=O)CC2S1(=O)=O (stereo not shown) | 6.00
C[C@]1(COC(=O)CCCC(=O)O)[C@H](C(=O)O)N2C(=O)C[C@H]2S1(=O)=O | 6.72
CC1(COC(=O)CCC(=O)O)C(C(=O)O)N2C(=O)CC2S1(=O)=O (stereo not shown) | 5.68

Now take the following compound into account.
Inquiry: Form field: pKi recorded for CC1(COC(=O)CCCCC(=O)O)C(C(=O)O)N2C(=O)CC2S1(=O)=O (stereo not shown) with SHV-1 (Klebsiella pneumoniae) (enter value)
Reply text: 6.00

---

# System Under Test: SHV-1 (Klebsiella pneumoniae)
# Construct: made in house
# Test Protocol: Partition ratio (turnover number, tn)
# Assay type: biochemical
# Run Conditions: SHV-1, 24 hour incubation, loss of >90% nitrocefin hydrolysis
Endpoint: t n 24h

Would you please look over these solved cases?
Compound | System Under Test | t n 24h
CC1(COC(=O)CCCCC(=O)O)C(C(=O)O)N2C(=O)CC2S1(=O)=O (stereo not drawn) | SHV-1 (Klebsiella pneumoniae) | >1500
CC1(COC(=O)CCC(=O)O)C(C(=O)O)N2C(=O)CC2S1(=O)=O (stereo not drawn) | SHV-1 (Klebsiella pneumoniae) | >1500

Now take the following compound into account.
Inquiry: Which measured t n 24h value corresponds to CC1(C(=O)OCC(N)=O)C(C(=O)O)N2C(=O)CC2S1(=O)=O (stereo not drawn) ?
Reply text: >1500
